Reference source for all entries: patent US20230203146A1

STUDY SYSTEM: FLAG tagged human Ang2 (Alexis Biochemicals) (human) (UniProt O15123)
Sequence (O15123 19-496): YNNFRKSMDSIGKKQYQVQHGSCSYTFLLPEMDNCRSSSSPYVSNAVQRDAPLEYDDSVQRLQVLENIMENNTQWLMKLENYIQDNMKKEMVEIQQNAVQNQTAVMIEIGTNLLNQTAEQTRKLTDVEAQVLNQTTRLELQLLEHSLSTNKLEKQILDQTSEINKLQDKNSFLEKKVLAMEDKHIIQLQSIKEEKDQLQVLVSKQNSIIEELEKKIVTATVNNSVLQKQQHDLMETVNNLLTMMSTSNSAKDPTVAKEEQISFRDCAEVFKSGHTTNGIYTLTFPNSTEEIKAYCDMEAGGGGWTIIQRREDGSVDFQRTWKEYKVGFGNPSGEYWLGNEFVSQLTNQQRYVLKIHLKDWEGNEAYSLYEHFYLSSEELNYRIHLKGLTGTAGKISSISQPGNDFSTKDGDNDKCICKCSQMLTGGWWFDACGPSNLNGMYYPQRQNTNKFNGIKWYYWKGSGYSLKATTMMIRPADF
ASSAY INFO: competition ELISA, FLAG-hAng2 (0.02 nM) on coated hTie2/Fc
Exercise: for every item that follows, state its recorded pIC50.
Give bare numbers, as −log10 of the molar value.

Sample answers from the record:
VHH 3A07 (VHH, not shown: small tags and cut ends) VHH: EVQLVESGGGLVQPGGSLRLSCAASGFTLDYDAIGWFRQAPGKEREGVSCITSSDGITYYADSVKGRFTISRDNAKNTVYLQMNSLKPEDTAVYYCATGNRRIYYSDYALACFPYEYDYWGQGTQVTVSS | 7.68
VHH 12B03 (VHH, not shown: small tags and cut ends) VHH: EVQLVESGGGLVQSGGSLRLSCAASGFALDYYTIGWFRQAPGKEREGVSCISGGDTSTYYADSVKGRFTISRDNAKNTVYLQMNSLKPEDTAVYYCATDSAGVPAGPAAVYGSTCSRLEYDYWGQGAQVTVSS | 8.34
VHH 2F04 (VHH, not shown: small tags and cut ends) VHH: EVQLVESGGGLVQAGGSLRLSCAASGFAFDDHLIGWFRQAPGKEREAVSCISRSAGSTYYADSVKGRFTISSDNAKNTVYLQMNSLKADDTAVYYCAAGPAWGRPASPLPYEYDYWGQGTQVTVSS | 8.55

Reported pIC50 for VHH 7G08 (VHH, not shown: small tags and cut ends) VHH: EVQLVESGGGLVQPGGSLRLSCAASGFALDYYAIGWFRQVPGKEREGVSCISSSDGITYYVDSVKGRFTISRDNAKNTVYLQMNSLKPEDTAVYYCATDSGGYIDYDCMGLGYDYWGQGTQVTVSS was 10.15
